- experimental-system: recombinant human 17β-HSD1 (Homo sapiens, UniProt P14061)
- Construct: made in house; host or cells: Sf9 insect cells (baculovirus, Bac to Bac Expression System); microsomal fraction used
- Sequence (P14061 1-328): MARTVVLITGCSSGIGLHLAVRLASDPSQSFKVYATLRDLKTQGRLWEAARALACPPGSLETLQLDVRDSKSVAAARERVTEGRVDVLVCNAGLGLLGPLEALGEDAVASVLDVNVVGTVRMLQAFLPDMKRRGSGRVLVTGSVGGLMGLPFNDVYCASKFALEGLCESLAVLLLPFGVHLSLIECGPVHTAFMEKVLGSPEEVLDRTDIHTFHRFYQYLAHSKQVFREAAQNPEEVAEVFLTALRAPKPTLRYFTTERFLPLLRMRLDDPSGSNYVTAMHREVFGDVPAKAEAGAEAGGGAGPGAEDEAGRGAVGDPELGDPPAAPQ
- assay-summary: Inhibition of recombinant human 17β-HSD1 (HPLC assay, conversion of 3H-estrone to estradiol)
- Type: biochemical
- protocol-conditions: 0.5 h; 1 μM inhibitor; 30 nM 3H-estrone, 1 mM NADPH, 30 min RT; read-out: inhibition of rec. 17 β-HSD1
Parameter threshold = 80%. Response is true when inhibition at 1 µM meets or exceeds it, else false.

Threshold query (inhibition at 1 µM >= 80%) on COc1ccc2c(c1)CC[C@H]1[C@@H]3[C@H](CCCn4cc(C5CC5)nn4)CC(=O)[C@@]3(C)CC[C@H]21 [Compound 41]
false

Threshold query (inhibition at 1 µM >= 80%) on Cc1ccc(-c2cn(CCC[C@H]3CC(=O)[C@@]4(C)CC[C@@H]5c6ccc(O)cc6CC[C@H]5[C@H]34)nn2)cc1 [Compound 25]
true

Threshold query (inhibition at 1 µM >= 80%) on COc1ccc2c(c1)CC[C@H]1[C@@H]3[C@H](CCCCn4cc(-c5ccc(C)cc5)nn4)CC(=O)[C@@]3(C)CC[C@H]21 [Compound 112]
false

Threshold query (inhibition at 1 µM >= 80%) on COc1ccc2c(c1)CC[C@H]1[C@@H]3[C@H](CCCCn4cc(C5CC5)nn4)CC(=O)[C@@]3(C)CC[C@H]21 [Compound 111]
false

Threshold query (inhibition at 1 µM >= 80%) on C[C@]12CC[C@@H]3c4ccc(O)cc4CC[C@H]3[C@@H]1[C@@H](CCCn1cc(CCc3ccccc3)nn1)CC2=O [Compound 16]
true
